// provenance: ChEMBL document CHEMBL5150003

- assay.name: Stability in mouse plasma assessed as compound remaining measured after 24 hrs
- Type: ADME, cell-free
- stated.conditions: read-out: Stability
Numbered stars: 1 amine (or outer) side, 2 acyl side, 3 side chain; on linkers, the order of the positions; unused ones are H or OH. Square brackets hold non-standard residues; d marks the D form. Peptide text beside a SMILES is read from it. * marks the point of attachment. X2 = CC(C(=O)[*:2])n1cc(C(CCCNC(=N)N)N[*:1])nn1; X1 = C[C@@H](O)[C@H](NN(CCCNC(N)N)CN*)C(N)=O
parameter.measured: remaining at 24 h (%)
Expressed in %, but write only the number.

According to the records, this molecule `CC(=O)N[C@@H](CCCNC(=N)N)C(=O)N[C@@H](C)C(=O)N[C@@H](CCCNC(=N)N)C(=O)N[C@@H](CCCNC(=N)N)C(=O)N[C@@H](CCCNC(=N)N)C(=O)N[C@@H](CCCCN)C(=O)N[C@@H](CCCCN)C(=O)N[C@@H](CCCNC(=N)N)C(=O)N[C@H](C(N)=O)[C@@H](C)O` displays remaining at 24 h of 5

remaining at 24 h reported for this molecule `CC(=O)NN(CCCNC(=N)N)CC(=O)N[C@@H](C)C(=O)N[C@@H](CCCNC(=N)N)C(=O)N[C@@H](CCCNC(=N)N)C(=O)N[C@@H](CCCNC(=N)N)C(=O)N[C@@H](CCCCN)C(=O)N[C@@H](CCCCN)C(=O)NN(CCCNC(=N)N)CC(=O)N[C@H](C(N)=O)[C@@H](C)O` : 45

Record `CC(=O)N[C@@H](CCCNC(=N)N)C(=O)NN(CCCNC(=N)N)CC(=O)N[C@@H](C)C(=O)N[C@@H](CCCNC(=N)N)C(=O)N[C@@H](CCCNC(=N)N)C(=O)N[C@@H](CCCNC(=N)N)C(=O)N[C@@H](CCCCN)C(=O)N[C@@H](CCCCN)C(=O)N[C@@H](CCCNC(=N)N)C(=O)N[C@H](C(N)=O)[C@@H](C)O` , field remaining at 24 h: 29

---
Form: molecule = CC(=O)N[C@@H](CCCNC(=N)N)C(=O)N[C@@H](C)C(=O)N[C@@H](CCCNC(=N)N)C(=O)N[C@@H](CCCNC(=N)N)C(=O)N[C@@H](CCCNC(=N)N)C(=O)N[C@@H](CCCCN)C(=O)N[C@@H](CCCCN)C(=O)NCN(CCCNC(N)N)N[C@H](C(N)=O)[C@@H](C)O (Ac-RARRRKK-X1) ; remaining at 24 h = 57

CC(C(=O)N[C@@H](C)C(=O)N[C@@H](CCCNC(=N)N)C(=O)N[C@@H](CCCNC(=N)N)C(=O)N[C@@H](CCCNC(=N)N)C(=O)N[C@@H](CCCCN)C(=O)N[C@@H](CCCCN)C(=O)N[C@@H](CCCNC(=N)N)C(=O)N[C@H](C(N)=O)[C@@H](C)O)n1cc(C(CCCNC(=N)N)NC(=O)[C@@H](N)CCCNC(=N)N)nn1 (stereo partly specified) (H-R[X2]ARRRKKRT-NH2) has a reported remaining at 24 h of 20

Entry CC1C(=O)N[C@@H](CCCNC(=N)N)C(=O)N[C@@H](C)C(=O)N[C@@H](CCCNC(=N)N)C(=O)N[C@@H](CCCNC(=N)N)C(=O)N[C@@H](CCCNC(=N)N)C(=O)N[C@H](C(=O)N[C@@H](CCCCN)C(=O)N[C@@H](CCCNC(=N)N)C(=O)N[C@H](C(N)=O)[C@@H](C)O)CCCCNC(CCCNC(=N)N)c2cn1nn2 (stereo partly specified) , remaining at 24 h reported as 28
